Form field: Ki (one value per entry).
Target: Glutathione hydrolase 1 proenzyme (Rattus norvegicus, UniProt P07314)
Sequence (P07314 1-379 limits assumed): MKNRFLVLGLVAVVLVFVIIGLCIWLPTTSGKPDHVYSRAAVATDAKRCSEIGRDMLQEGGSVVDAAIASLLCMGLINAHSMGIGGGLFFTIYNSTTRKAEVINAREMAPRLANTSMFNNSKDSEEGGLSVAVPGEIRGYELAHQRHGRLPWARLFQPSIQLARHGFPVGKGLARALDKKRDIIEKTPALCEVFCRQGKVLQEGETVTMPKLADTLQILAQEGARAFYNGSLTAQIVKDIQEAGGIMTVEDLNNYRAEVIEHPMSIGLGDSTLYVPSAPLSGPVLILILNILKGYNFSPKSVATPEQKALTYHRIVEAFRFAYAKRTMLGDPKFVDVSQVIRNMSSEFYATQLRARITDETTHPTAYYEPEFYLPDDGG
Sequence (P07314 380-568 limits assumed): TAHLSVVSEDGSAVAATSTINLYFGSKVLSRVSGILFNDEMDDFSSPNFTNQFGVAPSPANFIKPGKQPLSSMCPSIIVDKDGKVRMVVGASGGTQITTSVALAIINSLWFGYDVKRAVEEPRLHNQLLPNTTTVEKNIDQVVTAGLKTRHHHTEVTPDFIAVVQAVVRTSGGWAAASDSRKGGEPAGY
Experiment: Compound tested for the inhibition of Gamma-glutamyltranspeptidase in rat kidney at pH 8.0 at 37 degree C (Competitive inhibition)
Format: tissue-based
Report as a plain number; the unit µM is understood.

Consider the reported Ki for these molecules:
molecule=CSCC[C@H](N)C(=O)O assayed_system="Glutathione hydrolase 1 proenzyme (Rattus norvegicus, UniProt P07314)" quantity_name=Ki assay_value=26900
molecule="NC(CC[S+]([O-])CCC(=O)NCC(=O)O)C(=O)O (stereo not given)" assayed_system="Glutathione hydrolase 1 proenzyme (Rattus norvegicus, UniProt P07314)" quantity_name=Ki assay_value=53
molecule="N[C@@H](CC[S+]([O-])Cc1ccc(C(=O)NCC(=O)O)cc1)C(=O)O (stereo not given in full)" assayed_system="Glutathione hydrolase 1 proenzyme (Rattus norvegicus, UniProt P07314)" quantity_name=Ki assay_value=230
molecule="C[S+]([O-])CC[C@H](N)C(=O)O (stereo not given in full) [METHIONINE SULFOXIDE]" assayed_system="Glutathione hydrolase 1 proenzyme (Rattus norvegicus, UniProt P07314)" quantity_name=Ki assay_value=5900

**Q:** I'd like to know its Ki. The molecule in question is N[C@@H](CCSCCC(=O)NCC(=O)O)C(=O)O
**A:** 520
